assay: NCI Yeast Anticancer Drug Screen. Data for the wt2 strain (AID 169);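 note: 0% = growth of vehicle-treated yeast cultures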; settings: S. cerevisiae wt2 strain growth inhibition; at 11.0 µM; hits give high values
The panel holds about 79,000 compounds, 15% with a hit somewhere; the sample as a whole holds those more often.
MEASURED PARAMETER: growth inhibition (%)
Provide only the numeric value, understood in %.

COMPOUND: O=c1c2ccccc2[se]n1-c1cccnc1
growth inhibition, %: 25

# next compound below
Please give the measured growth inhibition for this compound: Oc1ccc2nc3ccccc3nc2c1
13

====

assay: NCI Yeast Anticancer Drug Screen. Data for the rad50 strain (AID 155);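 note: 0% = growth of vehicle-only cultures of the same strain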; conditions: S. cerevisiae rad50 strain growth inhibition; at 50.0 µM; hits give high values
The panel holds about 79,000 compounds, 15% with a hit somewhere; the sample as a whole holds those more often.
Label NOT MET if growth inhibition falls below 90%; label MET in every other case.

hey, is growth inhibition for this one >= 90%? CCNC(=O)OCC1C2=C(C(=O)C(C)=C(N)C2=O)N2CC3C(N3C)C12OC (stereo unspecified)
NOT MET

====

assay: NCI Yeast Anticancer Drug Screen. Data for the rad52 strain (AID 147);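 note: 0% = growth of vehicle-treated control cultures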; conditions: S. cerevisiae rad52 mutant growth inhibition; at 1.2 µM; hits give high values
This is part of a sample that, as a whole, favours compounds with a hit. Of some 79,000 tested, about 15% had one in any assay. Active and inactive are the calls of the source. Cut-off read from the data, not from the text of the source: active = growth inhibition above about 70%; inactive = the rest.
Reported growth inhibition by item:

Here is how some compounds turned out for growth inhibition.
COMPOUND: O=C(/C=C(\c1ccccc1)N1CC1)c1ccccc1
MEASURED PARAMETER: growth inhibition
VAL: -5% (inactive)
--
COMPOUND: COC(=O)C1c2cc3c(c(O)c2C(O)CC1(C)O)C(=O)c1c(O)cc2c(c1C3=O)OC1OC2(C)C(O)C(N(C)C)C1O (stereo not drawn)
MEASURED PARAMETER: growth inhibition
VAL: 0% (inactive)
--
COMPOUND: O=P(Oc1ccc(Cl)cc1)(Oc1ccc(Cl)cc1)N1CC1
MEASURED PARAMETER: growth inhibition
VAL: -1% (inactive)

Please give the measured growth inhibition for this compound: CCC1(O)C(=O)OCc2c1cc1n(c2=O)Cc2cc3cc(Cl)ccc3nc2-1 (stereo not drawn)
94% (active)

Could you do the same for COc1cc([C@@H]2c3cc4c(cc3C[C@@H]3COC(=O)C32)OCO4)cc(OC)c1O (stereo partly drawn) , please?
42% (inactive)

Could you do the same for CC(C)(C)c1cc([N+](=O)[O-])cc([N+](=O)[O-])c1O , please?
-11% (inactive)

Could you do the same for CC1=C[C@H]2O[C@@H]3C[C@H]4OC(=O)/C=C\C=C\C(C(C)O)OCC(O)C(C)CC(=O)OC[C@@]2(C[C@@H]1O)[C@]4(C)[C@@]31CO1 (stereo partly drawn) , please?
-21% (inactive)

Could you do the same for O=c1oc2ccccc2c(O)c1C(c1ccc2ccccc2c1)c1c(O)c2ccccc2oc1=O , please?
-8% (inactive)

====

Reported growth inhibition by item:
test: NCI Yeast Anticancer Drug Screen. Data for the wt1 strain (AID 149);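 note: 0% = growth of vehicle-treated wt1 cultures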; settings: S. cerevisiae wt1 strain (SPY 50644) growth inhibition; at 3.7 µM; hits give high values
Compounds without any hit were thinned out: in the full panel of roughly 79,000, 15% have a hit.
Provide only the numeric value, understood in %.

Here is how some compounds turned out for growth inhibition.
COMPOUND: O=P(Oc1ccc(Cl)cc1)(Oc1ccc(Cl)cc1)N1CC1
UOM: %
growth inhibition: -6
//
COMPOUND: CNC(=O)OCC1C2=C(C(=O)C(C)=C(N)C2=O)N2CC3C(N3C)C12OC (stereo unspecified)
UOM: %
growth inhibition: 4
//
COMPOUND: Cc1ccc2c(c1N)C(=O)c1ccccc1C2=O
UOM: %
growth inhibition: -1
//
COMPOUND: CCNC(=O)OCC1C2=C(C(=O)C(C)=C(N)C2=O)N2CC3C(N3C)C12OC (stereo unspecified)
UOM: %
growth inhibition: -16
//
COMPOUND: O=S(=O)(O)c1ccc(Cl)cc1.[Cd]
UOM: %
growth inhibition: 11
//
COMPOUND: COc1ccc(/C=C(/C)[N+](=O)[O-])cc1
UOM: %
growth inhibition: -21

Please give the measured growth inhibition for this compound: BrCC[N+]12CC[N+](CCBr)(CC1)C2
6

Could you do the same for CCCCCCCCCCCCCCCCP(=O)(O)OCC(N)C(=O)O (stereo unspecified) , please?
-46

Could you do the same for CCC1(O)C(=O)OCc2c1cc1n(c2=O)Cc2cc3cc(Cl)ccc3nc2-1 (stereo unspecified) , please?
0

Could you do the same for O=[N+]([O-])c1oc2ccc3ccccc3c2c1CCO , please?
14

Could you do the same for CC(C)CC(NC(=O)C(N)C(C)C)C(=O)NC(CCCCN)C(=O)Nc1ccc(N(CCCl)CCCl)cc1 (stereo unspecified) , please?
-10
